- Tested on: MDA-MB-231 breast
- procedure-text: NCI-60 one-dose screen, 48 h (100 = growth as untreated, 0 = no growth, -100 = all killed)
- run-parameters: 10 µM unless noted
This is part of a sample that, as a whole, favours compounds with a hit. Of some 83,000 tested, about 20% had one in any assay.
readout-name: growth (%)
Enter your answer as a number in %; do not include the unit.

# example entries with known answers
• CCc1cccc2c3c(sc12)C(c1ccc(F)cc1)C(C#N)=C(/N=C/c1ccc(Cl)cc1)O3 (configuration not stated) = 30.3
• Cc1cc(NS(=O)(=O)c2ccc(NC(=O)CSc3nc4ccccc4c(=O)n3-c3ccccc3)cc2)no1 = 98.7
• C#C[C@]1(O)CC[C@H]2[C@@H]3CC=C4c5sc(Nc6cc(Cl)ccc6OC)nc5CC[C@]4(C)[C@H]3CC[C@@]21C = 43.6
• CCCN1C=C/C(=C\C(=O)n2ccc3ccccc32)c2ccccc21 = 76.2

Kindly review the next compound as well.
Q: Fill in reported growth for this entry: CC(=O)N(O)CCCCCNC(=O)CCC(=O)N(O)CCCCCNC(=O)CCC(=O)N(O)CCCCCN(CCCCCCCCCC[P+](c1ccccc1)(c1ccccc1)c1ccccc1)CCCCCCCCCC[P+](c1ccccc1)(c1ccccc1)c1ccccc1
Result: 16.4

* * *

- System: NCI-H522 lung
- procedure-text: NCI-60 one-dose screen, 48 h (100 = growth as untreated, 0 = no growth, -100 = all killed)
- run-parameters: 10 µM unless noted
Compounds without any hit were thinned out: in the full panel of roughly 83,000, 20% have a hit.
# label = yes if growth < 50% else no

Solved entries:
- O=C(CCCCCC/C=C\c1csc(Br)n1)NO: no
- CCN(CC)CCOc1ccc(C(=C(C)Cc2ccc(OC)cc2)c2ccc(OCCN(CC)CC)cc2)cc1: no
- O=C(COc1ccc(/C=C2\C(=O)Nc3cc(Cl)ccc32)cc1)Nc1ccc(Cl)cc1: yes
- CN1CCN(c2ccc(C(=O)/C=C/c3cc(F)cc(C(F)(F)F)c3)cc2)CC1: no

// switching to the query molecule
Q: Problem: For the molecule CC(=O)Nc1nc(C)c(-c2csc(Nc3ccccc3)n2)s1 , is growth under 50%?
Result: yes

* * *

- Tested on: UO-31 renal
- procedure-text: NCI-60 one-dose screen, 48 h (100 = growth as untreated, 0 = no growth, -100 = all killed)
- run-parameters: 10 µM unless noted
This is part of a sample that, as a whole, favours compounds with a hit. Of some 83,000 tested, about 20% had one in any assay.
readout-name: growth (%)
Enter your answer as a number in %; do not include the unit.

# example entries with known answers
- O=c1c2cc(-c3ccc(F)cc3F)ccc2n(O)c(=O)n1-c1cccc(C(F)(F)F)c1: 8
- Clc1cccc(/C=N/Nc2nc(N/N=C/c3cccc(Cl)c3)nc(N3CCOCC3)n2)c1: 26.8
- CN1CCN(Cc2ccc(NC(=O)c3cncc(C#Cc4cnc5ccc(O[C@@H]6CCOC6)nn45)c3)cc2C(F)(F)F)CC1: -91.8

Kindly review the next molecule as well.
Q: Fill in reported growth for this entry: COc1cccc2c1[C@H](OC)[C@]13O[C@@]1(C2=O)[C@H](O)[C@H](C)[C@@](O)(C(=O)[C@@H]1O[C@H]1C)[C@@H]3O
Result: -16.1

* * *

- System: A498 renal
- procedure-text: NCI-60 one-dose screen, 48 h (100 = growth as untreated, 0 = no growth, -100 = all killed)
- run-parameters: 10 µM unless noted
- Protocol: Growth inhibition of the A498 human tumor cell line is measured as a screen for anti-cancer activity. Cells are grown in 96 well plates and exposed to the test compound for 48 hours. Compounds are tested at a single concentration, which is 10^-5 M for most compounds. The reported endpoint is percent growth (GI% or GIPRCNT), where numbers from 0 - 100% represent growth inhibition, and numbers from -100% - 0 represent cell death. For example, a value of 40 represents 60% growth inhibition. […]
This is part of a sample that, as a whole, favours compounds with a hit. Of some 83,000 tested, about 20% had one in any assay.
readout-name: growth (%)
Enter your answer as a number in %; do not include the unit.

- N#Cc1nc(-c2ccc(Cl)cc2)oc1N1CCC(S(=O)(=O)N2CCOCC2)CC1: 102
- CC1=C(C)C(=O)C(Nc2ccc3c(c2)OCCO3)=C(Br)C1=O: 103
- CN1CCN(CCNc2nc(-c3cccc(NS(=O)(=O)c4cccc5c(N(C)C)cccc45)c3)cs2)CC1: 67.5
- CC1(C)C=Cc2cc(/C(N)=N/C(N)=N/c3nc4ccccc4s3)ccc2O1: 114
- CCCc1cc2cc(-n3nc(CC)c4c3CC(C)(C)CC4=O)cc(NC3CCC(O)CC3)c2c(=O)[nH]1 (centres undefined): 37
- COc1ccc(NC2=C(Br)C(=O)C(C)=C(C)C2=O)cc1OC: 95

Q: Fill in reported growth for this entry: COc1ccc(-c2cc(-c3ccc(N4CCOCC4)cc3)n3c(n2)nc2ccccc23)cc1OC
Result: 63

Q: Fill in reported growth for this entry: Oc1ccc(-c2nc3ccc(/C(=N\N=C\c4ccc(Cl)cc4)c4ccccc4)cc3[nH]2)cc1
Result: 65.7

Q: Fill in reported growth for this entry: Cc1[nH]c(C(=O)Nc2ccccc2OCc2cccc(C(=O)NC3CCCNC3)c2)c(Cl)c1Cl (centres undefined)
Result: 66.2

Q: Fill in reported growth for this entry: COc1ccc(-c2cc(-c3ccc(N(C)C)cc3)n3c(n2)nc2ccccc23)cc1
Result: 51.8

Q: Fill in reported growth for this entry: COc1ccc2[nH]cc(-c3nn4cc(-c5ccncc5)nc4s3)c2c1
Result: 68.9

Q: Fill in reported growth for this entry: COc1cc(C(C)=C(c2ccc(OCCN(C)C)cc2)c2ccc(OCCN(C)C)cc2)ccc1F
Result: 108

* * *

- System: OVCAR-4 ovarian
- procedure-text: NCI-60 one-dose screen, 48 h
- run-parameters: 10 µM unless noted
About 83,000 compounds went through this panel and 20% of them were active in at least one assay; those are over-represented in the sample as a whole. Calls of active or inactive are those of the source. The calls were made as follows: active = growth percent below 10; inactive = the rest.
Hi there, use one of these labels in your reply, thanks! yes = active, no = inactive

Solved entries:
* Cn1cc(-c2nnc(N)nc2-c2c[nH]c3ccc(Br)cc23)c2cc(Br)ccc21 | no
* C#CCN(C)CCCOc1ccc(NCc2ccc(C(=O)NO)cc2)cc1Cl | no
* CCN(CC)CCOc1ccc(C(=C(C)Cc2ccc(OC)cc2)c2ccc(OCCN(CC)CC)cc2)cc1 | no

Q: Lab log entry: O=C(COc1ccc(/C=C2\C(=O)Nc3ccc(F)cc32)cc1)Nc1ccccc1 — outcome as called in the assay?
Result: no

Q: Lab log entry: Cc1cc(NS(=O)(=O)c2ccc(NC(=O)CSc3nc4ccccc4c(=O)n3-c3ccccc3)cc2)no1 — outcome as called in the assay?
Result: no

Q: Lab log entry: Cn1c(SCC(=O)c2ccco2)nc2ccccc2c1=O — outcome as called in the assay?
Result: no

Q: Lab log entry: CC(=O)C1=C(C)NC(NNc2ccccc2)=NC1c1ccc([N+](=O)[O-])cc1 (stereo not drawn) — outcome as called in the assay?
Result: no

Q: Lab log entry: CCOP(=O)(OCC)OC[C@]12CC[C@@H](C)[C@H](C)C1C1=CC[C@@H]3[C@@]4(C)CCCNC(C)(C)[C@@H]4CC[C@@]3(C)[C@]1(C)CC2 (stereo partly drawn) — outcome as called in the assay?
Result: no

Q: Lab log entry: NS(=O)(=O)c1nnc(/N=C/c2c(O)[nH]c3ccccc23)s1 — outcome as called in the assay?
Result: no

Q: Lab log entry: O=C1[C@@H]2Cc3c([nH]c4ccccc34)[C@H](c3ccc(Cl)cc3)N2C(=O)CN1C1CCN(Cc2ccccc2)CC1 — outcome as called in the assay?
Result: no

Q: Lab log entry: O=C(Nc1ccc(N=Cc2c(O)[nH]c3ccccc23)cc1)Nc1ccc(S(=O)(=O)Nc2ncccn2)cc1 — outcome as called in the assay?
Result: no

Q: Lab log entry: NC(=O)n1c(=O)n(-c2cccc(C(F)(F)F)c2)c(=O)c2cc(-c3ccc(F)cc3F)ccc21 — outcome as called in the assay?
Result: no

Q: Lab log entry: CC(=C(c1ccc(OCCN(C)C)cc1)c1ccc(OCCN(C)C)cc1)c1ccc(Cl)cc1 — outcome as called in the assay?
Result: yes

Q: Lab log entry: N#C/C(=C\c1ccc(-c2ccc(Cl)c(Cl)c2)o1)C(=O)Nc1ncc(Cc2ccc(Cl)cc2)s1 — outcome as called in the assay?
Result: yes

Q: Lab log entry: Cc1c(C(=O)/C=C/c2ccc(Cl)cc2)nnn1-c1ccc2oc(=O)ccc2c1 — outcome as called in the assay?
Result: no

Q: Lab log entry: COc1cc(-c2nc(-c3ccccc3)[nH]c2-c2ccnc(NCCCNS(=O)(=O)c3cccc(F)c3)n2)ccc1F — outcome as called in the assay?
Result: no

Q: Lab log entry: CCCCCCN1C=C/C(=C\C(=O)n2ccc3ccccc32)c2ccccc21 — outcome as called in the assay?
Result: no

Q: Lab log entry: COC(=O)N1CCN(CCNCc2ccc(NC(=O)c3ccc(C)c(C#Cc4cnc5cccnn45)c3)cc2C(F)(F)F)CC1 — outcome as called in the assay?
Result: no
